Molecular target: human GPR40 (Homo sapiens)
Sequence (O14842 whole entry): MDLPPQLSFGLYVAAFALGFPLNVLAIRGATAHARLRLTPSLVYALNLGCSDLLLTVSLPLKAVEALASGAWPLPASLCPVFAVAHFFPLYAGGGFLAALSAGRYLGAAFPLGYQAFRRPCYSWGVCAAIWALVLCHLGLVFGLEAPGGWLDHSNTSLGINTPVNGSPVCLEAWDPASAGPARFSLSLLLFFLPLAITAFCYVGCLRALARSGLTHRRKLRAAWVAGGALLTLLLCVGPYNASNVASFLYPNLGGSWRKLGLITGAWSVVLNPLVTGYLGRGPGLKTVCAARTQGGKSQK
Assay: Cell based aequorin assay using human GPR40
Conditions: CHO cells stably transfected with GPR40 and aequorin; 0.01% HSA; aequorin luminescence; read-out: Relative EC50
So I've got a bunch of molecules here, and I need their EC50 values.

For the molecule `Cc1c(Cl)cccc1-c1cccc(COc2ccc([C@H](CC(=O)O)c3nnnn3C)cc2)c1` , what EC50 is on record? < 10 nM

What do you get for `CCOc1cccc(-c2ccc(COc3ccc([C@H](CC(=O)O)c4nccn4C)cc3)cc2)c1` ? 100 to 1000 nM

What do you get for Cn1ccnc1C(CC(=O)O)c1ccc(OCc2cccc(-c3ccc(C(F)(F)F)cc3)c2)cc1 (stereo not drawn) ? 100 to 1000 nM

What do you get for `Cc1cc(Cl)ccc1-c1cccc(COc2ccc([C@H](CC(=O)O)c3ncco3)cc2)c1` ? 10 to 100 nM

What do you get for `Cc1nc(-c2ccc(C(F)(F)F)cc2)sc1COc1ccc([C@H](CC(=O)O)c2nccn2C)cc1` ? 100 to 1000 nM

What do you get for `CCCCOc1ccc(C)cc1-c1ccc(COc2ccc([C@@H](CC(=O)O)c3ncco3)cc2)cc1` ? 100 to 1000 nM
